test system: Plasmodium berghei; assay: Screen against P. berghei liver stage (PbLuc), transformed with Luciferase, at 2uM; type: functional, HepG2; conditions: tested at 2 uM
Out of some 68,000 compounds screened, about 2,700 (4%) showed an effect of 50% or more. The full list was thinned out, with strong results kept by preference.
Label 1.0 when INHIBITION is at or above 30%; otherwise label 0.0.

Record COCC(NC(=O)c1cc(NC(C)=O)ccc1Cl)c1ccnn1C (stereo unspecified) ; criterion: INHIBITION no lower than 30%. Met?
0.0

Record CCc1nc(-c2noc3ccc(C(=O)NCCN(C)C)cc23)co1 ; criterion: INHIBITION no lower than 30%. Met?
0.0

Record Cc1ccc(C)c(OC2CCN(C(=O)c3ccc(C)[nH]c3=O)CC2)c1 ; criterion: INHIBITION no lower than 30%. Met?
1.0

Record COc1ccc2c(c1)C1(CCN(Cc3ccoc3)CC1)N(C)CC2 ; criterion: INHIBITION no lower than 30%. Met?
0.0

Record Cn1ncc2c1CCCC2NCc1cccc(C(F)(F)F)c1 (stereo unspecified) ; criterion: INHIBITION no lower than 30%. Met?
0.0

Others:
Record Cc1nc(CC(=O)N2CCc3nc(-c4cnccn4)nc(O)c3C2)cs1 ; criterion: INHIBITION no lower than 30%. Met?
1.0

Record COCC(=O)N1CCO[C@H]2[C@H](OC)CC[C@@H]21 ; criterion: INHIBITION no lower than 30%. Met?
0.0

Record CCN(CC1CN(CC2CCC2)CCO1)c1cccnn1 (stereo unspecified) ; criterion: INHIBITION no lower than 30%. Met?
1.0

Record Cc1c(F)cccc1CN1CCn2nc(CNC(=O)N(C)C)cc2C1 ; criterion: INHIBITION no lower than 30%. Met?
0.0

Record O=C(CC1CCCC1)N1CCN(c2ccc(-n3cncn3)nn2)CC1 ; criterion: INHIBITION no lower than 30%. Met?
1.0

Record Cc1c(CN2CC[C@@H](N3CCC(O)CC3)[C@H](O)C2)[nH]c2ccc(F)cc12 ; criterion: INHIBITION no lower than 30%. Met?
1.0

----------
Would you mind telling me the reported INHIBITION of each entry?
test system: Plasmodium berghei; test: Screen against P. berghei liver stage (PbLuc), transformed with Luciferase, at 2uM; assay type: functional, HepG2; details: tested at 2 uM
Out of some 68,000 compounds screened, about 2,700 (4%) showed an effect of 50% or more. Only a selection was taken, and strong results are over-represented in it overall.
Give bare numbers, in %.

Use the examples below as a reference point.
Please look up its INHIBITION: Cn1c(=NC(=O)CSCC(=O)Nc2nccs2)sc2ccccc21
-29.3

Please look up its INHIBITION: CN(Cc1ccc2c(c1)OCO2)C(=O)NCCc1cnn(C)c1
-0.12

Please look up its INHIBITION: COc1ccc(C)c2c1N(C(=O)c1cnc3onc(C)c3c1)CCC2
47.2

Please look up its INHIBITION: COc1ccc(F)cc1C(=O)N(C)[C@@H]1CC[C@@H](O)[C@@H]1O
16.87

Please look up its INHIBITION: Cc1cnn(CCCNC(=O)NC(C)C(=O)Nc2ccccc2)c1 (stereo unspecified)
-17.39

Items follow; give INHIBITION for each.
1. COc1ccc2c(c1)sc(=NC(=O)CSCC(=O)Nc1nccs1)n2C
2. O=C(c1cc(=O)n(-c2ccccc2)[nH]1)N1CCOCC(O)C1 (stereo unspecified)

[54.16, 4.12]

Items follow; give INHIBITION for each.
1. CCn1c(=NC(=O)CSCC(=O)Nc2nccs2)sc2ccccc21
2. CS(=O)(=O)c1cccc(C(=O)NCCCN2CCc3ccccc3C2)c1
3. CCC(NC(=O)c1cccc(N2CCCC2=O)c1)c1ccc(OC)cc1 (stereo unspecified)

1. -35.96
2. 5.59
3. 30.34

Please look up its INHIBITION: CN(C(=O)c1cc(F)ccc1F)[C@@H]1CC[C@@H](O)[C@@H]1O
41.21
